Taken from patent US20230002757A1.

Biological target: T1, PD-1 protein (human, UniProt Q15116 25-167, limits assumed)
T1 construct: also called human PD-1
T1 sequence (Q15116 25-167 limits assumed): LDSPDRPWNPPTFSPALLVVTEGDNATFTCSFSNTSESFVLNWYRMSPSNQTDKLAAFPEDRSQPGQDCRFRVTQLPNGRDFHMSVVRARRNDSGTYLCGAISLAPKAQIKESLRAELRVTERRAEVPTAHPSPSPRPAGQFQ
Assay: blocking ELISA, PD-1 coated, competitor biotin PD-L1
Below, each of the binders is paired with its reported OD450 of PD-L1 bound, antibody at 0.15 µg/mL value.
Answer in OD450, number only, no unit symbol.

// solved cases for OD450 of PD-L1 bound, antibody at 0.15 µg/mL follow
504#SS16 (Fc fusion, not shown: a dimerising Fc or GST; small tags and cut ends, VHH-FC construct from HEK293 cells) VHH: EVQVVESGGGLVQAGGSLRLSCAVSGRTFSSYVMGWFRQAPGKERDFVAAISRSGGRTWYADSVKGRFTISFDNAKNTVYLQMNSLKPEDTASYYCNTDYTFAKLTAPDRRNDDWGQGTQVTVSS | 3.48
504#SS2 (Fc fusion, VHH-FC construct from HEK293 cells; not shown: The (G4S)3 linker leading to it is left out with it) VHH: EVQVVESGGGLVKTGDSLRLSCAASGGTISGYEMGWFRQAPGKEREFVAGISRNGRSTGYSDSAKDRFTISRDNAKNTVYLQMNSLKPEDTAVYYCAAGLKADYGDSYVDTSTRNYNYWGQGTQVTVSS | 3.34
504#SS29 (Fc fusion, not shown: a dimerising Fc or GST; small tags and cut ends, VHH-FC construct from HEK293 cells) VHH: QVQLVESGGGLVQAGGSLRLSCAASGRTFSGYTMGWFRRAPGKERELIANILWNSARRYYADSVKGRFTISRDNAMNTVDLQMNSLKPEDTAVYYCAVLVDSTYRFSNQGTQVTVSS | 3.35
504#SS22 (Fc fusion, not shown: a dimerising Fc or GST; small tags and cut ends, VHH-FC construct from HEK293 cells) VHH: QVQLVETGGGLVQAGGSLRLSCAASGRTFSSYAMGWFRQAPGKERDFVAGISGSGGNTPYAESVKGRFTISRDNAKNTVALQMNSLKPEDTAVYYCAAKFTSSSFYYRSPREYSSWGQGTQVTVSS | 3.47
504#SS14 (Fc fusion, not shown: a dimerising Fc or GST; small tags and cut ends, VHH-FC construct from HEK293 cells) VHH: QVQLVESGGGLVQPGGSLRLSCVASGFTFSSYWMYWVRQAPGKGLEWVSAIDTTGGSTAYTHSVKGRFTISRDNARNTLYLQMNNLKSEDTAVYYCANSTYFNDDPEYDRWGQGTQVTVSS | 3.22
504#SS30 (Fc fusion, not shown: a dimerising Fc or GST; small tags and cut ends, VHH-FC construct from HEK293 cells) VHH: EVQLVETGGGLVQAGGSLRLACEVSGRTFSSYAMGWFRQAPGREREFVASIRVSGGITDYADSVKGRFTISRDNAKDTVYLQMINLKPEDTAVYYCNADISRYRFSRGDYWGKGTLVTVSS | 3.33
504#SS7 (Fc fusion, VHH-FC construct from HEK293 cells; not shown: The (G4S)3 linker leading to it is left out with it) VHH: QVQLVESGGGLVQAGGSLTLSCAASGRTFNSYAMGWFRQAPGKEREFVAAISQNGGSQGYAEAVKDRFTISRDNTNKVVALQMNSLKPEDTAAYYCAADGDASDRSYAPPRDYKYEYWGQGTQVTVSS | 3.32

Pending binder:
Output OD450 of PD-L1 bound, antibody at 0.15 µg/mL of 504#SS1 (Fc fusion, VHH-FC construct from HEK293 cells; not shown: The (G4S)3 linker leading to it is left out with it) VHH: QVQLVESGGGLVQAGGSLRLSCAASGLTFSDFAMGWFRQAPGKEREFVAAISWSGGQTYNVESAKGRFTISRDNAKNTVYLQMNKLKPDDTAVYYCAASTMVVTTVAADYKYWGQGTQVTVSS 3.19
